# study-system: T1, recombinant cynomolgus monkey PD-1 expressed with a C-terminal myc-myc-hexahistidine tag (cynomolgus monkey (Macaca fascicularis))
# T1 construct: monomeric; also called MfPD-1-MMH
# T1 chain: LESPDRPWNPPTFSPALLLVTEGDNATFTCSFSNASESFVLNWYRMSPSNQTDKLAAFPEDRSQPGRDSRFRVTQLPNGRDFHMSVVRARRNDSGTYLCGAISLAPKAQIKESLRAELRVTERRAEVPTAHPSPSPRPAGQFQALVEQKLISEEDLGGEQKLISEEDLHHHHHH
# assay-details: SPR, mAb captured, 25C;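 further: rates from fitting Biacore data for PD-1 binding to anti-PD-1 antibodies with a 1:1 model, KD computed as koff/kon and t½ as ln2/(60·koff)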
Listed below: koff values for each entry.
Dear colleague, please return just the value in s⁻¹, with no unit written.

Before answering, review these 2 worked examples.
INSERT INTO measurements (binder, result_type, units_text, recorded_number) VALUES
  ('H1M7800N (antibody, mouse IgG1, V domains shown, Human variable regions, mouse IgG1 Fc) VH: EVQLVESGGGLVQPGGSLRLSCAASGFTVSNNYMSWVRQAPGKGLEWVSVIYSGGFTYYTDSVKGRFTISRHNSKNTLYLQMNSLRAEDTAVYYCARYYYDTSDYWTFFDYWGQGTLVTVSS VL: EIVMTQSPATLSVSPGERATLSCRASQSVSSNLAWYQQKPGQAPRLLIYGASTRATGIPARFSGSGSGTEFTLTISSLQSGDFAVYYCQQYNNWPLTFGGGTKVEIN', 'koff', 's⁻¹', 0.0104),
  ('H1M7799N (antibody, mouse IgG1, V domains shown, Human variable regions, mouse IgG1 Fc) VH: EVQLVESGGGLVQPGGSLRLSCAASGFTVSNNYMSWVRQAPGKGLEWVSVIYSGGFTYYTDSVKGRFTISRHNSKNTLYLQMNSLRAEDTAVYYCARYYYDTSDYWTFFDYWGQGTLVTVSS VL: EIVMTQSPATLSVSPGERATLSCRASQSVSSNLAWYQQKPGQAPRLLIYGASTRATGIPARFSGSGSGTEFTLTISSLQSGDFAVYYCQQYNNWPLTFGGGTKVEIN', 'koff', 's⁻¹', 0.013);

Item H2aM7791N (antibody, mouse IgG2a, V domains shown, Human variable regions, mouse IgG2a Fc; also called H2M7791N) VH: QMQLQQWGAGLLKPSETLSLTCVVYGGSLNGYYWSWIRQSPGKGLEWIGEIDHSGSTNYNPSLKNRVTMSVDTSKIQFSLKLTSVTVADTAVYYCAREGLLPFDYWGQGTLVTVSS VL: EIVLTQSPGTLSLSPGERVTLSCRASQSVYSNYLAWYQQNPGQAPRLLIYAASNRATGIPDRFSGSGSGTDFTLTISRLEPEDFAVYYCHQYATSPWTFGQGTKVEIK has what recorded koff?
0.000553

And the next one, H2aM7780N (antibody, mouse IgG2a, V domains shown, Human variable regions, mouse IgG2a Fc (H2aM prefix); also called H2M7780N) VH: QVQLVESGGGVVQSGRSLRLSCAASGFTFSSYGMHWVRQAPGKGLEWVAVIWYDGSNIYYSDSVKGRFTISRANSKNTLYLQMNSLRAEDTAVYYCARPGHWNYFFEYWGQGTLVTVSS VL: DIQMTQSPSSLSASVGDRVTITCRASQSINNYLNWYQQKPGKAPKLLIYTASSLQSGVPSRFSGSGSGTDFTLTISSLQPEDFATYYCQQSYSTPPLTFGQGTQLEIK ?
0.000315
